Measured EC50, listed per entry for reference.
target: RNA-binding protein pos-1 (Caenorhabditis elegans); assay: disruptors of C. elegans POS-1 RNA interaction – biochemical, fluorescence polarization, dose response (AID 1964);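 note: purified POS-1 fused to maltose binding protein made in E. coli; potency of compounds blocking POS-1 binding to fluorescent RNA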
Sequence (G5EF15 whole entry, the tested form may be a part): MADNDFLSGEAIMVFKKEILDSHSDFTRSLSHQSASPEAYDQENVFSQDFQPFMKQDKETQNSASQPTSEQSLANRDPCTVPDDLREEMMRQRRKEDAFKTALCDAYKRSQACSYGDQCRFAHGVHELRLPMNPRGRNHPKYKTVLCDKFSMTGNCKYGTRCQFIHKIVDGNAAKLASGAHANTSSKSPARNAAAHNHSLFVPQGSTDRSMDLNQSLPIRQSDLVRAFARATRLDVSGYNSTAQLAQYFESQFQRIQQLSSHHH
Activity calls are given as the source filed them.

stdin: Any idea what EC50 was measured for "O=C1NC(=O)N(Cc2ccccc2)C(=O)/C1=C/Nc1ccc(CN2CCOCC2)cc1" ?
stdout: > 300 µM (not active)

stdin: Okay, and "O=C(CNS(=O)(=O)c1ccc([N+](=O)[O-])cc1)N/N=C/c1ccc(O)cc1O" ?
stdout: 8.98 µM (active)

stdin: Okay, and CN1C(=O)NC(c2ccccc2[N+](=O)[O-])C2=C1CCCC2=O (stereo unspecified) ?
stdout: 8.8 µM (active)

stdin: Okay, and "CCN(CC)C(=O)c1cc2c(=O)c3cc(Cl)ccc3oc2nc1C" ?
stdout: > 300 µM (not active)

stdin: Okay, and CCCOc1cccc(C2C(C(=O)c3ccco3)=C(O)C(=O)N2c2nnc(C)s2)c1 (stereo unspecified) ?
stdout: 51.9 µM (active)

---

system: H4; experiment: Luminescence Cell-Based Dose Response HTS to Identify Activators of 5'UTR Stem-Loop Driven Prion Protein mRNA Translation in H4 Neuroglioblastoma Cells. [Related pubchem assays: 1829 (Project Summary), 1814 (Primary HTS)]; format: functional; conditions: Homo sapiens
Calls of active or inactive are those of the source.
Measured EC50, listed per entry for reference.

Illustrative cases are given below, each with its answer.
{"columns": ["compound", "assayed-system", "endpoint-result"],
 "data": [
  ["COCC1CCN(Cc2nc(-c3ccc4c(c3)OCO4)no2)C1 (stereo unspecified)", "H4", "45 µM (active)"],
  ["CN(C)/C=N/c1cnc(C(=O)c2ccc(Cl)cc2)n1C", "H4", "0.52 µM (active)"],
  ["COc1ccc2nc(-n3c(C)ccc3C)sc2c1", "H4", "60.8 µM (active)"],
  ["CC(=O)COc1ccc2c3c(c(=O)oc2c1C)CCCCC3", "H4", "> 120 µM (not active)"]
]}

stdin: Any idea what EC50 was measured for "Cc1ccc(NC(S)=NC(=NS(=O)(=O)c2ccccc2)c2ccccc2)cc1" ?
stdout: 6.51 µM (active)

stdin: Okay, and "COC(=O)Cc1c(OC)ccn(CCc2c[nH]c3ccccc23)c1=O" ?
stdout: > 120 µM (not active)

---

Reported values: AC50 for Cytochrome P450 3A4 (Homo sapiens), one per item.

stdin: Any idea what AC50 was measured for "COC(=O)c1c(C)[nH]c(O)c1/C=N/c1ccc(C(C)C)cc1" ?
stdout: 28.2 µM (inconclusive)

stdin: Okay, and "CN1C(=O)C(=Cc2ccccc2Oc2ccc(Cl)c(F)c2)C(=O)N(C)C1=O" ?
stdout: 14.1 µM (inconclusive)

---

Measured AC50, listed per entry for reference.
target: Cytochrome P450 2C9 (Homo sapiens)
Sequence (P11712 whole entry): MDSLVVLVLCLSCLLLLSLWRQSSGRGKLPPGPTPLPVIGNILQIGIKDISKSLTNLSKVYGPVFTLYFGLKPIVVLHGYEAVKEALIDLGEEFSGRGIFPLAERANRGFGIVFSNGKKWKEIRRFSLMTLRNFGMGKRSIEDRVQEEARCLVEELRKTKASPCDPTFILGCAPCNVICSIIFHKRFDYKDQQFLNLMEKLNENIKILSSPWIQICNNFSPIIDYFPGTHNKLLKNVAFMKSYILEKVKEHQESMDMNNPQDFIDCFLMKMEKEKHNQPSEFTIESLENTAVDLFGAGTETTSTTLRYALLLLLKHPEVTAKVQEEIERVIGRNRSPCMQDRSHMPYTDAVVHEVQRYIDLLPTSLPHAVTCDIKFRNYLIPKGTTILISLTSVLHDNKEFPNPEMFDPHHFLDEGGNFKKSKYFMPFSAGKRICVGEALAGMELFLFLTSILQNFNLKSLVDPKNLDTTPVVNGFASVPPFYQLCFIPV

Illustrative cases are given below, each with its answer.
{"columns": ["compound", "assayed-system", "AC50"],
 "data": [
  ["c1coc(CN2CCN(C(c3cccs3)c3nnnn3C3CCCC3)CC2)c1 (stereo unspecified)", "Cytochrome P450 2C9 (Homo sapiens)", "31.6 µM (inconclusive)"],
  ["CSc1ccc(C#N)cc1NC(=O)c1cccc(Cl)c1", "Cytochrome P450 2C9 (Homo sapiens)", "39.8 µM (inconclusive)"],
  ["CSc1cccc(NC(=O)c2ccc(Cl)nc2)c1", "Cytochrome P450 2C9 (Homo sapiens)", "39.8 µM (inconclusive)"],
  ["O=C(O)c1ccccc1-c1ccccc1C(=O)Nc1ccc2c(c1)[nH]c(=O)c1ccccc12", "Cytochrome P450 2C9 (Homo sapiens)", "3.16 µM (inconclusive)"]
]}

stdin: Any idea what AC50 was measured for "CCN1C/C(=C\c2cccc(C)c2)c2nc3ccccc3c(C(=O)O)c2C1" ?
stdout: 8.91 µM (inconclusive)

stdin: Okay, and "CCOC(=O)CSc1nc(O)c2cnn(-c3ccc(C)cc3)c2n1" ?
stdout: 2.24 µM (inconclusive)

stdin: Okay, and CCC(C)NC(=O)c1c(C)cc(=O)oc1C (stereo unspecified) ?
stdout: 5.01 µM (inconclusive)

stdin: Okay, and "COC(=O)c1c(C)[nH]c(O)c1/C=N/c1ccc(C(C)C)cc1" ?
stdout: 28.2 µM (inconclusive)

stdin: Okay, and "O=C(NCc1ccc(F)cc1)C1CCN(S(=O)(=O)N2CCCCC2)CC1" ?
stdout: 10 µM (inconclusive)

stdin: Okay, and "CCCc1cc(=O)oc2cc(OCc3cc(OC)c(OC)c(OC)c3)c(Cl)cc12" ?
stdout: 1 µM (inconclusive)

stdin: Okay, and CCCCN1C(=O)CN(CCc2ccccc2)C(=O)C1c1ccc(OC)cc1 (stereo unspecified) ?
stdout: 20 µM (inconclusive)

stdin: Okay, and "CCCCCCc1nc2ccccc2c(=O)n1NC(=O)c1c(O)c2c(n(CC(C)C)c1=O)CCCC2" ?
stdout: 0.708 µM (inconclusive)

stdin: Okay, and "CO[C@H]1OC[C@@]2(C)[C@@H]3C4=C(CN2C(=O)OC(C)(C)C)[C@H](C)[C@H](CO)[C@H](CO)[C@H]4CC[C@H]13" ?
stdout: 20 µM (inconclusive)

stdin: Okay, and "O=S(=O)(c1ccccc1)N1CCC2(CCN(Cc3ccncc3)CC2)CC1" ?
stdout: 25.1 µM (inconclusive)

stdin: Okay, and "COc1ccc2[nH]c(C(=O)c3ccccc3)cc2c1" ?
stdout: 39.8 µM (inconclusive)

stdin: Okay, and "O=C(c1cc(C(F)(F)F)cc(C(F)(F)F)c1)N1CCC2(CCCN(c3ccncc3)C2)CC1" ?
stdout: 31.6 µM (inconclusive)
